Recorded pIC50, one value per entry.
Target: JAK3 (Homo sapiens, UniProt P52333)
Construct: The Ramos B-cell line was acquired from ATCC (ATCC Catalog No. CRL-1596)
Assay: Assay for CD23 expression on Ramos B-cells stimulated by IL-4 (Table IV: ability to inhibit JAK3 activity)
Details: tested under conditions described in Example 3 (so in the source)
pIC50: −log10 of the molar value. Structures can show the parent of a compound that is named as a salt.

Some compounds with known pIC50 results, for comparison:
- compound: "Cc1cnc(Nc2cc(C)c(C)c(C)c2)nc1Nc1ccc2oc(=O)n(COP(=O)(O)O)c2c1 [Compound I-132]"
  pIC50: "> 6.30"
- compound: "C#Cc1cccc(Nc2ncc(C)c(Nc3ccc4oc(=O)[nH]c4c3)n2)c1 [Compound I-31]"
  pIC50: "> 6.30"
- compound: "O=c1[nH]c2cc(Nc3nc(Nc4cccc(C(O)C(F)(F)F)c4)ncc3F)ccc2o1 (stereo not drawn) [Compound I-210]"
  pIC50: "> 6.30"
- compound: "CC(NC1CC1)c1ccc(Nc2ncc(F)c(Nc3ccc4oc(=O)[nH]c4c3)n2)cc1 (stereo not drawn) [Compound I-158, formate salt]"
  pIC50: "> 6.30"
- compound: "COc1ccc(Nc2ncc(Cl)c(Nc3ccc4oc(=O)[nH]c4c3)n2)c(F)c1OC [Compound I-51, trifluoroacetate salt]"
  pIC50: "> 6.30"

Query :: Identify measured pIC50 associated with COc1c(C)ccc(Nc2ncc(Cl)c(Nc3ccc4oc(=O)[nH]c4c3)n2)c1F [Compound I-67]
Result :: > 6.30

Query :: Identify measured pIC50 associated with COc1cc(Nc2ncc(F)c(Nc3ccc4oc(=O)[nH]c4c3)n2)ccc1-c1ccncc1 [Compound I-207, formate salt]
Result :: < 5.00

Query :: Identify measured pIC50 associated with CCN(CC)Cc1cc(Nc2nc(Nc3cc(C)c(C)c(C)c3)ncc2C)cc2[nH]c(=O)oc12 [Compound I-90, ditrifluoroacetate salt]
Result :: 5.30 to 6.30

Query :: Identify measured pIC50 associated with O=c1[nH]c2cc(Nc3nc(Nc4ccc5ccccc5c4)ncc3[N+](=O)[O-])ccc2o1 [II-6, trifluoroacetate salt]
Result :: < 5.00

Query :: Identify measured pIC50 associated with Cc1cc(Nc2ncc(C)c(Nc3ccc4oc(=O)[nH]c4c3)n2)ncc1C#N [II-22]
Result :: 5.30 to 6.30

Query :: Identify measured pIC50 associated with Cc1cc(Nc2ncc(Cl)c(Nc3ccc4oc(=O)[nH]c4c3)n2)cc(C)c1C [Compound I-6, trifluoroacetate salt]
Result :: < 5.00

Query :: Identify measured pIC50 associated with COc1cc(Nc2ncc(F)c(Nc3cc(C)c4oc(=O)[nH]c4c3)n2)cc(C)c1F [Compound I-190, trifluoroacetate salt]
Result :: 5.30 to 6.30

Query :: Identify measured pIC50 associated with Cc1cc(Nc2ncc(CN3CCN(C)CC3)c(Nc3ccc4oc(=O)[nH]c4c3)n2)cc(C)c1C [Compound I-100]
Result :: 5.30 to 6.30

Query :: Identify measured pIC50 associated with COc1c(C)ccc(Nc2ncc(C)c(Nc3ccc4oc(=O)[nH]c4c3)n2)c1F [Compound I-29, trifluoroacetate salt]
Result :: > 6.30

Query :: Identify measured pIC50 associated with Cc1ccc(Nc2ncc(Cl)c(Nc3ccc4oc(=O)[nH]c4c3)n2)cc1C(F)(F)F [Compound I-9]
Result :: > 6.30

----------
Target: JAK3 (Homo sapiens, UniProt P52333)
Construct: The Ramos B-cell line was acquired from ATCC (ATCC Catalog No. CRL-1596)
Assay: Assay for CD23 expression on Ramos B-cells stimulated by IL-4 (Table IV: ability to inhibit JAK3 activity)
Settings: tested under conditions described in Example 3 (so in the source)
Structures can show the parent of a compound that is named as a salt.
assayMetric: IC50

- molecule: "COc1cc(Nc2ncc(CO)c(Nc3ccc4oc(=O)[nH]c4c3)n2)cc(C)c1F [Compound I-80, trifluoroacetate salt]"
  IC50: "0.5 to 5 µM"
- molecule: "Cc1cc(Nc2ncc(Cl)c(Nc3ccc4oc(=O)[nH]c4c3)n2)cc(N(C)C)c1C [Compound I-83, trifluoroacetate salt]"
  IC50: "< 0.5 µM"
- molecule: "Cc1cnc(Nc2cccc(C#N)c2F)nc1Nc1ccc2oc(=O)[nH]c2c1 [Compound I-72, trifluoroacetate salt]"
  IC50: "< 0.5 µM"
- molecule: "CC(C)c1ccc(Nc2ncc(F)c(Nc3ccc4oc(=O)[nH]c4c3)n2)cc1 [Compound I-200, trifluoroacetate salt]"
  IC50: "0.5 to 5 µM"
- molecule: "CCOc1cc(Nc2ncc(Cl)c(Nc3ccc4oc(=O)[nH]c4c3)n2)cc(C)c1C [Compound I-104, ditrifluoroacetate salt]"
  IC50: "< 0.5 µM"
- molecule: "COC(=O)c1cnc(Nc2cc(C)c(C)c(C)c2)nc1Nc1ccc2oc(=O)[nH]c2c1 [Compound I-40, trifluoroacetate salt]"
  IC50: "< 0.5 µM"

// next item, IC50 requested
Query :: Identify measured IC50 associated with Cc1cnc(Nc2cc(C)c(C(=O)OC(C)(C)C)c(C)c2)nc1Nc1ccc2oc(=O)[nH]c2c1 [Compound I-150]
Result :: < 0.5 µM

----------
Molecular target: JAK3 (Homo sapiens, UniProt P52333)
Construct: The Ramos B-cell line was acquired from ATCC (ATCC Catalog No. CRL-1596)
Assay: Assay for CD23 expression on Ramos B-cells stimulated by IL-4 (Table IV: ability to inhibit JAK3 activity)
Conditions: tested under conditions described in Example 3 (so in the source)
pIC50: −log10 of the molar value. Counter-ions that a name gives are not always drawn.
Recorded pIC50, one value per entry.

Some compounds with known pIC50 results, for comparison:
- compound: "Cc1cnc(Nc2cc(C)c(C)c(C)c2)nc1Nc1cc(CN2CCN(C(=O)OC(C)(C)C)CC2)c2oc(=O)[nH]c2c1"
  pIC50: "5.00 to 5.30"
- compound: "Cc1cnc(Nc2cc(C)c(CO)c(C)c2)nc1Nc1ccc2oc(=O)[nH]c2c1"
  pIC50: "> 6.30"
- compound: "COc1ccc(F)c(Nc2ncc(F)c(Nc3ccc4oc(=O)[nH]c4c3)n2)c1"
  pIC50: "5.00 to 5.30"

Query :: Identify measured pIC50 associated with CS(=O)(=O)c1cc(Nc2ncc(F)c(Nc3ccc4oc(=O)[nH]c4c3)n2)ccc1F [Compound I-168, trifluoroacetate salt]
Result :: > 6.30

Query :: Identify measured pIC50 associated with COC(=O)c1cnc(Nc2cc(C)c(C)c(OC)c2)nc1Nc1ccc2oc(=O)[nH]c2c1 [Compound I-59, trifluoroacetate salt]
Result :: < 5.00

Query :: Identify measured pIC50 associated with COC(=O)c1cnc(Nc2ccc3ccccc3c2)nc1Nc1ccc2oc(=O)[nH]c2c1 [II-7, trifluoroacetate salt]
Result :: < 5.00

----------
Target: JAK3 (Homo sapiens, UniProt P52333)
Construct: The Ramos B-cell line was acquired from ATCC (ATCC Catalog No. CRL-1596)
Sequence (P52333 1-1124): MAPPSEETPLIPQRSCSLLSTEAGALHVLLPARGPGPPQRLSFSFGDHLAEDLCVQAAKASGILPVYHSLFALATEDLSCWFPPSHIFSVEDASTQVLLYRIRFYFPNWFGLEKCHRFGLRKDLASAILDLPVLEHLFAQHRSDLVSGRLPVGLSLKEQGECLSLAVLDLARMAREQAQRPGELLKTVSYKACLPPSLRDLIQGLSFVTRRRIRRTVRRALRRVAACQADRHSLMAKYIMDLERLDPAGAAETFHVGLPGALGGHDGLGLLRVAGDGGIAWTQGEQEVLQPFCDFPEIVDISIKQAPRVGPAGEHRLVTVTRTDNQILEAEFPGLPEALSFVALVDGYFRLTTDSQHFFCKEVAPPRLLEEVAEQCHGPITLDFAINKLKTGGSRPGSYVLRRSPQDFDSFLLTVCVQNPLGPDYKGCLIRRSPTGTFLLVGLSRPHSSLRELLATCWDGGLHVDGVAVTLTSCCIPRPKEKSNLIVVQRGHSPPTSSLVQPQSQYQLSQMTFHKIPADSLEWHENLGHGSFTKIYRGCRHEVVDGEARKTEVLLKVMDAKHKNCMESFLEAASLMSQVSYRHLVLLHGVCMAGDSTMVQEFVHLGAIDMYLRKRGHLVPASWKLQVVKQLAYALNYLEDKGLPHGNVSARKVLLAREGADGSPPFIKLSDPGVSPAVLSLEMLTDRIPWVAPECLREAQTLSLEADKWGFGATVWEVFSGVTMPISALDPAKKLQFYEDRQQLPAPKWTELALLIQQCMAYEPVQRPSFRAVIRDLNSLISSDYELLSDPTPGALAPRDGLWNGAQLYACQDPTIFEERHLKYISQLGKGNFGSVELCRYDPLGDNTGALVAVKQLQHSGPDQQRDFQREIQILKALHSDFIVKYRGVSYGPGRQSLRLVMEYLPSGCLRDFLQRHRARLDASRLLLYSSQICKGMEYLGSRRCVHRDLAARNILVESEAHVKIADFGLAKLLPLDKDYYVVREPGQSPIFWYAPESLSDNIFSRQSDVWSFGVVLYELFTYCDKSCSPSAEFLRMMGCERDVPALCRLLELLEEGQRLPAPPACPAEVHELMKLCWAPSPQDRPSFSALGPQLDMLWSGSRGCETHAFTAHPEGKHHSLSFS
Assay: Assay for CD23 expression on Ramos B-cells stimulated by IL-4 (Table IV: ability to inhibit JAK3 activity)
Conditions: tested under conditions described in Example 3 (so in the source)
pIC50: −log10 of the molar value. Counter-ions that a name gives are not always drawn.
Recorded pIC50, one value per entry.

Some compounds with known pIC50 results, for comparison:
- compound: "COc1cc(Nc2ncc([N+](=O)[O-])c(Nc3ccc4oc(=O)[nH]c4c3)n2)cc(C(F)(F)F)c1 [Compound I-47, trifluoroacetate salt]"
  measuredTarget: "JAK3 (Homo sapiens, UniProt P52333)"
  reportedMeasurement: "< 5.00"
- compound: "CN1C(=O)CCCc2cc(Nc3ncc(F)c(Nc4ccc5oc(=O)[nH]c5c4)n3)ccc21 [II-28, trifluoroacetate salt]"
  measuredTarget: "JAK3 (Homo sapiens, UniProt P52333)"
  reportedMeasurement: "> 6.30"
- compound: "O=C1CCc2cc(Nc3ncc(F)c(Nc4ccc5oc(=O)[nH]c5c4)n3)ccc2N1 [II-26, trifluoroacetate salt]"
  measuredTarget: "JAK3 (Homo sapiens, UniProt P52333)"
  reportedMeasurement: "> 6.30"

Query :: Identify measured pIC50 associated with `Cc1cnc(Nc2ccc(C#N)c(C)n2)nc1Nc1ccc2oc(=O)[nH]c2c1`
Result :: < 5.00

Query :: Identify measured pIC50 associated with `Cc1cnc(Nc2ccc3c(c2)C(=O)NC3)nc1Nc1ccc2oc(=O)[nH]c2c1`
Result :: > 6.30

Query :: Identify measured pIC50 associated with COc1cc(Nc2ncc(C)c(Nc3ccc4oc(=O)[nH]c4c3)n2)c(F)cc1C [Compound I-122, trifluoroacetate salt]
Result :: 5.30 to 6.30

Query :: Identify measured pIC50 associated with `Cc1cc(Nc2ncc(C)c(Nc3ccc4oc(=O)[nH]c4c3)n2)cc(C)n1`
Result :: > 6.30
